Values were extracted from patent US20240180883A1.

Test: Phase 1 food effect study, 100 mg tablet fed vs fasted
Format: in vivo, human
Conditions: both sexes, human, plasma, oral, 100 mg, 1 × 100 mg tablet, fed; read-out: GLSM Cmax
parameter: Cmax (ng/mL)
Could you give me the number in ng/mL? Just the number is fine.

Looking up C[C@@H]1[C@H](c2ccccc2)C[C@H](NC(=O)c2cnc3c(c2)C[C@@]2(C3)C(=O)Nc3ncccc32)C(=O)N1CC(F)(F)F , I see its Cmax listed as 263

---

Assay: Study A: drug interaction PK with verapamil or ketoconazole
Type: in vivo, human
Conditions: human, plasma, oral, ubrogepant 20 mg with verapamil 240 mg; read-out: Apparent terminal t1/2, AM (converted)
parameter: half-life (h)
Could you give me the number in h? Just the number is fine.

Looking up C[C@@H]1[C@H](c2ccccc2)C[C@H](NC(=O)c2cnc3c(c2)C[C@@]2(C3)C(=O)Nc3ncccc32)C(=O)N1CC(F)(F)F , I see its half-life listed as 4.29

---

Experiment: Phase 1 hepatic impairment PK study, single 100 mg dose
Type: in vivo, human
Conditions: both sexes, human, plasma, po, 100 mg, 100 mg single oral dose; mild hepatic impairment; read-out: Tmax, median (min-max)
parameter: Tmax (h)
Could you give me the number in h? Just the number is fine.

Looking up C[C@@H]1[C@H](c2ccccc2)C[C@H](NC(=O)c2cnc3c(c2)C[C@@]2(C3)C(=O)Nc3ncccc32)C(=O)N1CC(F)(F)F [ubrogepant] , I see its Tmax listed as 1.5

---

Experiment: Phase 1 hepatic impairment PK study, single 100 mg dose
Type: in vivo, human
Conditions: both sexes, human, plasma, po, 100 mg, 100 mg single oral dose; normal hepatic function; read-out: Cmax, mean ±SD
parameter: Cmax (ng/mL)
Could you give me the number in ng/mL? Just the number is fine.

Looking up C[C@@H]1[C@H](c2ccccc2)C[C@H](NC(=O)c2cnc3c(c2)C[C@@]2(C3)C(=O)Nc3ncccc32)C(=O)N1CC(F)(F)F , I see its Cmax listed as 406

---

Test: Phase 1 hepatic impairment PK study, single 100 mg dose
Assay type: in vivo, human
Conditions: both sexes, human, plasma, po, 100 mg, 100 mg single oral dose; normal hepatic function; read-out: Tmax, median (min-max)
parameter: Tmax (h)
Could you give me the number in h? Just the number is fine.

Looking up C[C@@H]1[C@H](c2ccccc2)C[C@H](NC(=O)c2cnc3c(c2)C[C@@]2(C3)C(=O)Nc3ncccc32)C(=O)N1CC(F)(F)F , I see its Tmax listed as 1.75

---

Experiment: Phase 1 hepatic impairment PK study, single 100 mg dose
Type: in vivo, human
Conditions: both sexes, human, plasma, po, 100 mg, 100 mg single oral dose; moderate-impaired; read-out: Geometric LSM AUC0-t, Test
Description: The study was intended to enroll 24 male and female participants with hepatic impairment (8 mildly impaired, 8 moderately impaired, and 8 severely impaired) and 8 healthy male and female participants with normal hepatic function, aged 18 through 75 years, who were matched closely to the age, weight, and gender of the hepatically impaired groups. Participants with hepatic impairment were categorized according to the Child-Pugh classification. […]
parameter: AUC(0-t) (ng·h/mL)
Could you give me the number in ng·h/mL? Just the number is fine.

Looking up C[C@@H]1[C@H](c2ccccc2)C[C@H](NC(=O)c2cnc3c(c2)C[C@@]2(C3)C(=O)Nc3ncccc32)C(=O)N1CC(F)(F)F [ubrogepant] , I see its AUC(0-t) listed as 2300

---

Experiment: Phase 1 hepatic impairment PK study, single 100 mg dose
Assay type: in vivo, human
Details: both sexes, human, plasma, po, 100 mg, 100 mg single oral dose; moderate hepatic impairment; read-out: AUC0-inf, mean ±SD
Text: The study was intended to enroll 24 male and female participants with hepatic impairment (8 mildly impaired, 8 moderately impaired, and 8 severely impaired) and 8 healthy male and female participants with normal hepatic function, aged 18 through 75 years, who were matched closely to the age, weight, and gender of the hepatically impaired groups. Participants with hepatic impairment were categorized according to the Child-Pugh classification. […]
parameter: AUC(0-inf)
Number first, unit second: that is the form wanted.

Looking up C[C@@H]1[C@H](c2ccccc2)C[C@H](NC(=O)c2cnc3c(c2)C[C@@]2(C3)C(=O)Nc3ncccc32)C(=O)N1CC(F)(F)F , I see its AUC(0-inf) listed as 2820 ng·h/mL

---

Experiment: Phase 1 hepatic impairment PK study, single 100 mg dose
Type: in vivo, human
Settings: both sexes, human, plasma, po, 100 mg, 100 mg single oral dose; moderate-impaired; read-out: Geometric LSM Cmax, Test
parameter: Cmax (ng/mL)
Could you give me the number in ng/mL? Just the number is fine.

Looking up C[C@@H]1[C@H](c2ccccc2)C[C@H](NC(=O)c2cnc3c(c2)C[C@@]2(C3)C(=O)Nc3ncccc32)C(=O)N1CC(F)(F)F , I see its Cmax listed as 449

---

Assay: Study A: drug interaction PK with verapamil or ketoconazole
Format: in vivo, human
Settings: human, plasma, oral, 20 mg, ubrogepant 20 mg alone (Table 9); read-out: AUC0-∞, AM
parameter: AUC(0-inf) (ng·h/mL)
Could you give me the number in ng·h/mL? Just the number is fine.

Looking up C[C@@H]1[C@H](c2ccccc2)C[C@H](NC(=O)c2cnc3c(c2)C[C@@]2(C3)C(=O)Nc3ncccc32)C(=O)N1CC(F)(F)F [ubrogepant] , I see its AUC(0-inf) listed as 213

---

Assay: Phase 1 food effect study, 100 mg tablet fed vs fasted
Assay type: in vivo, human
Settings: both sexes, human, plasma, oral, 100 mg, 1 × 100 mg tablet, fasted; read-out: t1/2, mean (CV %) (converted)
Procedure: The treatments were administered in 1 of 2 sequences in periods 1 and 2 with a washout period of at least 7 days between each treatment. Eighteen healthy participants with a mean age of 28.4 years (range: 20 to 39 years) were enrolled. The majority of participants were male (14 of 18, 77.8%). […] Mean (SD) weight was 75.99 ([…]) kg and mean (SD) BMI was 25.03 (3.290) kg/m2. […]
parameter: half-life

Looking up C[C@@H]1[C@H](c2ccccc2)C[C@H](NC(=O)c2cnc3c(c2)C[C@@]2(C3)C(=O)Nc3ncccc32)C(=O)N1CC(F)(F)F , I see its half-life listed as ~5 h

---

Test: Study A: drug interaction PK with verapamil or ketoconazole
Type: in vivo, human
Conditions: human, plasma, oral, 20 mg, ubrogepant 20 mg alone; read-out: Cmax, mean (SD)
Description: Study A (verapamil and ketoconazole) comprised 3 treatment periods. Healthy adults aged 19-50 years for Study A and 18-45 years for Study B were eligible to participate. […] For study B, participants had to have a BMI between 18.0 and 30 kg/m^2. Exclusion criteria for both studies included hypersensitivity to any study drug; exposure to hepatitis B virus, hepatitis C virus, or HIV; or use of any drug or substance known to affect CYP enzymes or P-gp.
parameter: Cmax (ng/mL)
Could you give me the number in ng/mL? Just the number is fine.

Looking up C[C@@H]1[C@H](c2ccccc2)C[C@H](NC(=O)c2cnc3c(c2)C[C@@]2(C3)C(=O)Nc3ncccc32)C(=O)N1CC(F)(F)F , I see its Cmax listed as 45.2

---

Assay: Phase 1 hepatic impairment PK study, single 100 mg dose
Format: in vivo, human
Details: both sexes, human, plasma, po, 100 mg, 100 mg single oral dose; severe-impaired; read-out: Geometric LSM AUC0-∞, Test
parameter: AUC(0-inf)

Looking up C[C@@H]1[C@H](c2ccccc2)C[C@H](NC(=O)c2cnc3c(c2)C[C@@]2(C3)C(=O)Nc3ncccc32)C(=O)N1CC(F)(F)F , I see its AUC(0-inf) listed as 3270 ng·h/mL

---

Assay: Study A: drug interaction PK with verapamil or ketoconazole
Format: in vivo, human
Details: human, plasma, oral, ubrogepant 20 mg with verapamil 240 mg; read-out: Cmax, AM
parameter: Cmax (ng/mL)
Could you give me the number in ng/mL? Just the number is fine.

Looking up C[C@@H]1[C@H](c2ccccc2)C[C@H](NC(=O)c2cnc3c(c2)C[C@@]2(C3)C(=O)Nc3ncccc32)C(=O)N1CC(F)(F)F [ubrogepant] , I see its Cmax listed as 125

---

Experiment: Phase 1 hepatic impairment PK study, single 100 mg dose
Type: in vivo, human
Conditions: both sexes, human, plasma, po, 100 mg, 100 mg single oral dose; severe-impaired; read-out: Geometric LSM AUC0-t, Test
parameter: AUC(0-t)

Looking up C[C@@H]1[C@H](c2ccccc2)C[C@H](NC(=O)c2cnc3c(c2)C[C@@]2(C3)C(=O)Nc3ncccc32)C(=O)N1CC(F)(F)F , I see its AUC(0-t) listed as 3250 ng·h/mL

---

Assay: Study B: drug interaction PK with rifampin
Type: in vivo, human
Settings: human, plasma, oral, ubrogepant 100 mg + rifampin 600 mg; read-out: AUC0-∞, mean (SD)
parameter: AUC(0-inf) (ng·h/mL)
Could you give me the number in ng·h/mL? Just the number is fine.

Looking up C[C@@H]1[C@H](c2ccccc2)C[C@H](NC(=O)c2cnc3c(c2)C[C@@]2(C3)C(=O)Nc3ncccc32)C(=O)N1CC(F)(F)F , I see its AUC(0-inf) listed as 397
